All figures here come from the supplement of paper PMC12764529.

- EXPERIMENT_SUMMARY: folding stability dG unfold (combined trypsin and chymotrypsin); higher = more stable
Can you tell me folding stability dG unfold for the items I'm about to list?
Reply with just the number (in kcal/mol).

folding stability dG unfold reported for this sequence SAGGSAGGGKPKVEIEYNGKTYEFDSLEELVAEAKEPVRIRLPNGEEIELSREDLKNLTVRLVPSAGGSAGG [r6_684_TrROS_Hall] : 1.99

folding stability dG unfold reported for this sequence SAGGSAGGMEEIEIEINGKKAKIYRLPGDEDLFLIEVDGELYLVKVKKKDGKWEIVEVKKLDELSAGGSAGG [r6_915_TrROS_Hall] : 4.13

folding stability dG unfold reported for this sequence SAGALEETTLPLPRPESLPDVSPEVLAALILALLSAVGVTVEVLSSDPANPVTAMVATRDGRVVLRALASAG [r5_80_JUSTAS] : 2.06

folding stability dG unfold reported for this sequence SAGGKFKIVKIEVEEKTVKVKNKDGKIEKKKVKVIKVKIYKDGKLIKEVTFKSKEDMLNALKELLKKSAGGS [r8_21_TrROS_Hall] : 4.35
